# testName: growth loss of phage-infected AddAB-carrying E. coli, confirmation, counter-screen for RecBCD inhibitor project, absorbance, E. coli V3065, T4 phage (AID 651984);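 further: higher means less bacterial growth from phage killing when AddAB is blocked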
# conditionNotes: E. coli expressing H. pylori AddAB + T4 phage, OD growth; at 11.9 µM; stronger effect = higher value; gene 2 mutant T4, recBCD-deleted host
Some of the results follow.
Decision: inhibition compared against 10%; not below it gives y, below it gives n.

Q: Answer whether inhibition of CN1CCN(c2cc3c(cc2F)c(=O)c(C(=O)O)cn3CCF)CC1 is greater than or equal to 10%.
Result: y

Q: Answer whether inhibition of Nc1nonc1-n1nnc(C(=O)N/N=C/c2cc(Br)ccc2O)c1CSC1=NCCS1 is greater than or equal to 10%.
Result: y

Q: Answer whether inhibition of CCn1cc(C(=O)NCCO)c(=O)c2cc(F)c(N3CCN(C)CC3)cc21 is greater than or equal to 10%.
Result: y

Q: Answer whether inhibition of O=C(CSc1ccc(-c2ccccn2)nn1)Nc1ccccc1 is greater than or equal to 10%.
Result: y

Q: Answer whether inhibition of CC1=C(C/C=C(\C)CCCC(C)CCCC(C)CCCC(C)C)C(=O)c2ccccc2C1=O (stereo not given) is greater than or equal to 10%.
Result: n
